Provenance of the data: BigSolDB 2.1

- Experimental setup: in ethanol, 318.15 K
Metric: solubility (mole fraction)
Give bare numbers.

Prompt: What value of solubility (mole fraction) has been reported for the following molecule? CC[C@H]1OC(=O)[C@H](C)[C@@H](O[C@H]2C[C@@](C)(OC)[C@@H](O)[C@H](C)O2)[C@H](C)[C@@H](O[C@@H]2O[C@H](C)C[C@H](N(C)C)[C@H]2O)[C@](C)(O)C[C@@H](C)C(=O)[C@H](C)[C@@H](O)[C@]1(C)O.N#CS.O.O
Completion: 0.00856
